Hey, just so you know, these numbers are from patent US10815246B2.

- System: HL60
- experiment summary: In vitro cytotoxicity of toxin compounds (Example 12, Table 4)
- Format: cell-based
- study conditions: Homo sapiens, HL-60

{"columns": ["compound", "IC50"],
 "data": [
  ["COC(=O)C[C@@H]1C[C@@]2(CO2)[C@H](O)[C@@H](/C=C/C(C)=C/C[C@@H]2O[C@H](C)[C@H](NC(=O)/C=C\\C(C)OC(=O)c3ccc(F)cc3)C[C@@H]2C)O1 (stereo partly drawn) [Compound 2]", "80 pM"],
  ["COC(=O)C[C@@H]1C[C@@]2(CO2)[C@H](O)[C@@H](/C=C/C(C)=C/C[C@@H]2O[C@H](C)[C@H](NC(=O)/C=C\\C(C)c3ccon3)C[C@@H]2C)O1 (stereo partly drawn) [Compound 4]", "50 pM"],
  ["COC(=O)C[C@@H]1C[C@@]2(CO2)[C@H](O)[C@@H](/C=C/C(C)=C/C[C@@H]2O[C@H](C)[C@H](NC(=O)/C=C\\C(C)c3noc(C)n3)C[C@@H]2C)O1 (stereo partly drawn) [Compound 6]", "40 pM"]
]}
